# ASSAYED TARGET: T1, recombinant biotinylated human PAR2 extracellular domain (residues 1-75), N-terminal AviTag, C-terminal Flag … (human, UniProt P55085 26-75, biotin on the AviTag (enzymatic biotinylation))
# T1 construct: also called Bio-human-PAR2 ECD; human PAR2 ECD; not shown: N-terminal AviTag (Avidity LLC); C-terminal Flag and poly Histidine tags
# T1 sequence (P55085 26-75): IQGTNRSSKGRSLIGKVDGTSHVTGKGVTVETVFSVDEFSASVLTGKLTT
# ASSAY OVERVIEW: HTRF competition with Par0067 IgG, scFv
RECORDED ENDPOINT: Fold IC50 (pH 6.0 v pH 7.4)

binder="PaB670090 scFv (scFv, V domains shown, purified scFv; also called ZZ1ODR-F02) VH: EVQLLESGGGLVQPGGSLRLSCAASGFTFSSYAMNWVRQAPGKGLEWVSTISYHGHHISHADHVKHRFTISRDNSKNTLYLQMNSLRAEDTAVYYCARINNDPMDVWGQGTLVTVSS VL: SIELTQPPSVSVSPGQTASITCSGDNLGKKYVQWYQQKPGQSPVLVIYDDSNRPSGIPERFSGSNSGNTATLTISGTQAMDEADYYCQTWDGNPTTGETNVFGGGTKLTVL" recorded_endpoint="Fold IC50 (pH 6.0 v pH 7.4)" obs_value="3.8 fold"
binder="PaB670078 scFv (scFv, V domains shown, purified scFv; also called ZZ1OZJ-G03) VH: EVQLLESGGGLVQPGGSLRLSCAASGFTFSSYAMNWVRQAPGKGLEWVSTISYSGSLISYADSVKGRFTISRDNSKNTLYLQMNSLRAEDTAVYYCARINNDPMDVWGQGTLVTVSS VL: SIELTQPPSVSVSPGQTASITCSGDNLGKKYVQWYQQKPGQSPVLVIYDDSNRPSGIPERFSGSNSGNTATLTISGTQAMDEADYYCHHWHGHPHTGEHNVFGGGTKLTVL" recorded_endpoint="Fold IC50 (pH 6.0 v pH 7.4)" obs_value="9.6 fold"
binder="PaB670098 scFv (scFv, V domains shown, purified scFv; also called ZZ1ODT-G01) VH: EVQLLESGGGLVQPGGSLRLSCAASGFTFSSYAMNWVRQAPGKGLEWVSTISHSGHLHHYADSHKHRFTISRDNSKNTLYLQMNSLRAEDTAVYYCARINNDPMDVWGQGTLVTVSS VL: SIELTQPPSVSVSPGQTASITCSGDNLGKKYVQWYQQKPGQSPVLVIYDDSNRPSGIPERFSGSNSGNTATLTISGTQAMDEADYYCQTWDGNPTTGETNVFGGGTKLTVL" recorded_endpoint="Fold IC50 (pH 6.0 v pH 7.4)" obs_value="3.2 fold"
